These entries and their values trace back to patent US20250214969A1.

- testedSystem: truncated His-MBP-Tev-KLHDC2 (residues 1-363) (Homo sapiens, UniProt Q9Y2U9)
- Construct: truncated His -MBP-Tev-KLHDC2 (residues 1-363) purified from E. coli; made in house; host or cells: E. coli
- Sequence (Q9Y2U9 1-363): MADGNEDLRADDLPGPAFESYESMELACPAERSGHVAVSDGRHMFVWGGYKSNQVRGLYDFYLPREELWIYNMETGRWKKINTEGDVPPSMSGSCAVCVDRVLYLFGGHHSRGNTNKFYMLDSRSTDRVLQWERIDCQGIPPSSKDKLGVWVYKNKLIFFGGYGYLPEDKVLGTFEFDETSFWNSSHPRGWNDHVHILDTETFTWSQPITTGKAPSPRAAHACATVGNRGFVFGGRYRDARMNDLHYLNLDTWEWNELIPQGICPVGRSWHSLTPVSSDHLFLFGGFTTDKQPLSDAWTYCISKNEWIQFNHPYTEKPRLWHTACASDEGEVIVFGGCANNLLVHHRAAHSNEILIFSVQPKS
- assayInfo: KLHDC2 FP competition binding assay
- particulars: 15 nM KLHDC2 (residues 1-363), 10 nM fluorescein-labeled diglycine peptide probe, read-out: KLHDC2 binding Human FP: average external IC50
endpoint: IC50

Solved entries:
O=C(O)Cc1cc(-c2ccccc2)ccc1O : > 5 µM
CCc1ccc(C(=O)Nc2ccc(=O)n(CC(=O)O)c2)cc1-c1cccnc1 : > 5 µM
O=C(O)Cn1cc(NC(=O)c2ccc(-c3ccccc3Cl)cc2)ccc1=O : > 5 µM
NCCCCCCc1cccc2c(-c3cccc(C(=O)Nc4ccc(=O)n(CC(=O)O)c4)c3)cncc12 : > 5 µM
Cc1ccc(C(=O)Nc2ccc(=O)n(CC(=O)O)c2)nc1-c1cccnc1 : > 5 µM
CC(C)Cn1ccc2c(C(=O)Nc3ccc(=O)n(CC(=O)O)c3)ccnc21 : > 5 µM
O=C(O)Cn1cc(NC(=O)COc2ccc(F)cc2)ccc1=O : > 5 µM
CC(C)Cn1ccc2c(C(=O)Nc3ccc(=O)n(CC(=O)O)c3)cccc21 : > 5 µM
Cn1ccc2c(C(=O)Nc3ccc(=O)n(CC(=O)O)c3)cccc21 : > 5 µM
Cc1sc2c(c1C)C(c1ccc(Cl)cc1)=N[C@@H](CC(=O)NCCCCCCc1cncc(-c3cccc(C(=O)Nc4ccc(=O)n(CC(=O)O)c4)c3)c1)c1nnc(C)n1-2 : < 0.05 µM

Per the reported truncated His-MBP-Tev-KLHDC2 (residues 1-363) (Homo sapiens, UniProt Q9Y2U9) data, O=C(O)Cn1cc(-c2ccc(F)cc2F)ccc1=O has IC50 of > 5 µM

// IC50 (truncated His-MBP-Tev-KLHDC2 (residues 1-363) (Homo sapiens, UniProt Q9Y2U9)) for O=C(Nc1ccnc(C(=O)O)c1)c1cccc(-c2cccnc2)c1 = > 5 µM

# lookup: O=C(O)Cn1cc(-c2cccc(N3CCCCC3)c2)ccc1=O on truncated His-MBP-Tev-KLHDC2 (residues 1-363) (Homo sapiens, UniProt Q9Y2U9), IC50 = > 5 µM

Value sought: IC50, system truncated His-MBP-Tev-KLHDC2 (residues 1-363) (Homo sapiens, UniProt Q9Y2U9), item N#Cc1ccc(OCC(=O)Nc2ccc(=O)n(CC(=O)O)c2)cc1 . Result: > 5 µM

truncated His-MBP-Tev-KLHDC2 (residues 1-363) (Homo sapiens, UniProt Q9Y2U9) data for O=C(O)Cn1cc(NC(=O)c2cccc(-c3cncs3)c2)ccc1=O ; its IC50: > 5 µM

Hey, truncated His-MBP-Tev-KLHDC2 (residues 1-363) (Homo sapiens, UniProt Q9Y2U9) data for O=C(O)Cn1cc(-c2ccc(C(=O)N3CCOCC3)cc2)ccc1=O : IC50 came out at > 5 µM

COc1cc(-c2ccc(CCCCCCCCCNC(=O)C[C@@H]3N=C(c4ccc(Cl)cc4)c4c(sc(C)c4C)-n4c(C)nnc43)cc2)ccc1C(=O)Nc1ccc(=O)n(CC(=O)O)c1 on truncated His-MBP-Tev-KLHDC2 (residues 1-363) (Homo sapiens, UniProt Q9Y2U9) gives IC50 = 0.05 to 0.5 µM

// compound Cc1cc(C)c(-c2ccc(=O)n(CC(=O)O)c2)cc1C , assay truncated His-MBP-Tev-KLHDC2 (residues 1-363) (Homo sapiens, UniProt Q9Y2U9), IC50 value: > 5 µM

The recorded IC50 with truncated His-MBP-Tev-KLHDC2 (residues 1-363) (Homo sapiens, UniProt Q9Y2U9) for O=C(O)Cc1cc(NC(=O)c2cccc(-c3cccnc3)c2)ccc1Cl was > 5 µM

Form field, IC50 with truncated His-MBP-Tev-KLHDC2 (residues 1-363) (Homo sapiens, UniProt Q9Y2U9), item O=C(O)Cn1cc(-c2cccc(OCc3ccccc3)c2)ccc1=O : > 5 µM

// assay truncated His-MBP-Tev-KLHDC2 (residues 1-363) (Homo sapiens, UniProt Q9Y2U9), entry O=C(O)Cn1cc(N2CCOCC2)ccc1=O , IC50 value = > 5 µM

Observed IC50, truncated His-MBP-Tev-KLHDC2 (residues 1-363) (Homo sapiens, UniProt Q9Y2U9), O=C(O)Cn1cc(NC(=O)COc2cccc3cnccc23)ccc1=O : > 5 µM

Measured IC50 (truncated His-MBP-Tev-KLHDC2 (residues 1-363) (Homo sapiens, UniProt Q9Y2U9)), entry Cc1ccccc1OCC(=O)Nc1ccc(=O)n(CC(=O)O)c1 : > 5 µM

Observed IC50 on truncated His-MBP-Tev-KLHDC2 (residues 1-363) (Homo sapiens, UniProt Q9Y2U9), entry COc1cc(C)c(-c2ccc(=O)n(CC(=O)O)c2)cc1C , equals > 5 µM

Summary line: NC(=O)Cn1cc(NC(=O)c2cccc(-c3cccnc3)c2)ccc1=O , truncated His-MBP-Tev-KLHDC2 (residues 1-363) (Homo sapiens, UniProt Q9Y2U9), reported IC50 = > 5 µM

The reported IC50 value, truncated His-MBP-Tev-KLHDC2 (residues 1-363) (Homo sapiens, UniProt Q9Y2U9), for Cc1cc(=O)n(CC(=O)O)cc1NC(=O)c1ccccc1 reads > 5 µM

The recorded IC50 with truncated His-MBP-Tev-KLHDC2 (residues 1-363) (Homo sapiens, UniProt Q9Y2U9) for CC(C)=Cc1cccc(-c2ccc(=O)n(CC(=O)O)c2)c1 was > 5 µM

Reported truncated His-MBP-Tev-KLHDC2 (residues 1-363) (Homo sapiens, UniProt Q9Y2U9) IC50 for item O=C(O)Cn1cc(NC(=O)c2ccnc(-c3ccccc3)c2)ccc1=O was > 5 µM

For COc1c(C(=O)Nc2ccc(=O)n(CC(=O)O)c2)cccc1-c1ccccc1 on truncated His-MBP-Tev-KLHDC2 (residues 1-363) (Homo sapiens, UniProt Q9Y2U9), measured IC50 was > 5 µM

Hey, truncated His-MBP-Tev-KLHDC2 (residues 1-363) (Homo sapiens, UniProt Q9Y2U9) data for O=C(O)Cn1cc(NC(=O)c2ccc(-c3ccccc3)cc2)ccc1=O : IC50 came out at > 5 µM
